Test system: Fibroblast
assay.info: Multiplex assay against human fibroblast
Type: toxicity, cell-based
reported.conditions: 48 h, 10 µM, compound concentration 10 uM, replicate 1
Parameter threshold = 50%. Response is 1.0 when Population Fragmented Nuclei (%) meets or exceeds it, else 0.0.

Record excerpt, results attached:
{"molecule": "Cc1c[nH]c2nccc(Oc3c(F)cc(Nc4cc(Cl)nc(N)n4)cc3F)c12 [BAY-549]", "assigned.label": 1.0}
{"molecule": "CC(C)(C)NC[C@H](O)COc1nsnc1N1CCOCC1 [TIMOLOL]", "assigned.label": 0.0}
{"molecule": "COc1cc(Nc2nccc(-c3cnn4nc(OC)ccc34)n2)cc(C(F)(F)F)c1", "assigned.label": 1.0}

Switching to the query record.
-- ask Is it the case that CCOC(=O)Nc1cc(-c2ccc(C)c(NS(C)(=O)=O)c2)nn2c(C)nnc12 has Population Fragmented Nuclei (%) reaching or exceeding 50%?
-- reply 0.0

* * *

Test system: HEK-293T
assay.info: Multiplex assay against HEK293T
Assay type: toxicity, cell-based
reported.conditions: human, 12 h, 10 µM, compound concentration 10 uM, replicate 1
Below, each entry is listed alongside its reported Population Apoptotic (%).
Express the result in % but write the number alone.

Record excerpt, results attached:
{"compound": "O=c1[nH]c2ccccc2n1C1CCN(Cc2ccc(-c3[nH]c4cc5ncnc5cc4nc3-c3ccccc3)cc2)CC1", "Population Apoptotic (%)": 38}
{"compound": "CC(C)NC(=O)N1CC[C@H](NC2=Nc3cc(F)ccc3N(CC(F)F)c3ccc(Cl)cc32)C1", "Population Apoptotic (%)": 53}
{"compound": "Cc1ccccc1C(c1ccccc1C)N1C2CCC1CC(O)(c1ccccc1)C2 (centres undefined)", "Population Apoptotic (%)": 53}

// CCc1ccc(OCc2ccccc2C(=O)Nc2ccc3nc(C)cc(N)c3c2)cc1.Cl : Population Apoptotic (%) value = 50

// CC(C)(C)NC[C@H](O)COc1nsnc1N1CCOCC1 [TIMOLOL] : Population Apoptotic (%) value = 55

// CCCSc1nc(N[C@@H]2C[C@H]2c2ccc(F)c(F)c2)c2nnn([C@@H]3C[C@H](OCCO)[C@@H](O)[C@H]3O)c2n1 [TICAGRELOR] : Population Apoptotic (%) value = 68

// CC1=C(C(=O)Nc2cc3cn[nH]c3cc2F)C(c2ccc(C(F)(F)F)cc2)CC(=O)N1 (centres undefined) : Population Apoptotic (%) value = 38

// Cc1ccc2c(c1)c1c(n2CCc2ccc(C)nc2)CCN(C)C1 [LATREPIRDINE] : Population Apoptotic (%) value = 89

// Cc1cccc(CN2CCN(C(c3ccccc3)c3ccc(Cl)cc3)CC2)c1.Cl.Cl (centres undefined) : Population Apoptotic (%) value = 69

* * *

System: U2OS
assay.info: Multiplex assay against U2OS
Type: toxicity, cell-based
reported.conditions: human, 12 h, 10 µM, compound concentration 10 uM, replicate 2
attribute.measured: Population Mitochondria Different-Phenotype (%)
Express the result in % but write the number alone.

{"molecule": "COc1ccc(-c2ccc3ncc4c(c3c2)n(-c2ccc(N3CCNCC3)c(C(F)(F)F)c2)c(=O)n4C)cn1.O=C(O)/C=C\\C(=O)O [BGT-226]", "unit.symbol": "%", "quantitative.readout": 32}
{"molecule": "CN1CCN(Cc2ccc(Nc3ncc(Cl)c(Nc4ccccc4S(=O)(=O)N(C)C)n3)cc2)CC1 [DUBERMATINIB]", "unit.symbol": "%", "quantitative.readout": 38}
{"molecule": "CC(C)Oc1ccccc1C(=O)Nc1ccccc1C(=O)Nc1cccc(S(=O)(=O)C(F)(F)F)c1", "unit.symbol": "%", "quantitative.readout": 92}

// O=c1[nH]c2ccccc2n1C1CCN(Cc2ccc(-c3[nH]c4cc5ncnc5cc4nc3-c3ccccc3)cc2)CC1 : Population Mitochondria Different-Phenotype (%) value = 75

// COc1ccccc1CN[C@H]1C2CCN(CC2)[C@H]1C(c1ccccc1)c1ccccc1 [CP-96345] : Population Mitochondria Different-Phenotype (%) value = 45

// CNC(=O)Nc1ccc(-c2nc(N3CC4CCC(C3)O4)c3cnn(C4CCC5(CC4)OCCO5)c3n2)cc1 : Population Mitochondria Different-Phenotype (%) value = 75

// CCc1nn(CCCN2CCN(c3cccc(Cl)c3)CC2)c(=O)n1CCOc1ccccc1.Cl [NEFAZODONE HYDROCHLORIDE] : Population Mitochondria Different-Phenotype (%) value = 97

// COC(=O)C1=C(C)NC(C)=C(C(=O)OCCCN2CCC(c3ccccc3)(c3ccccc3)CC2)[C@H]1c1cccc([N+](=O)[O-])c1 [NIGULDIPINE] : Population Mitochondria Different-Phenotype (%) value = 50

// CCc1ccc(OCc2ccccc2C(=O)Nc2ccc3nc(C)cc(N)c3c2)cc1.Cl : Population Mitochondria Different-Phenotype (%) value = 100

// Cc1ccc2c(c1)c1c(n2CCc2ccc(C)nc2)CCN(C)C1 [LATREPIRDINE] : Population Mitochondria Different-Phenotype (%) value = 100

// COc1cc2ncn(-c3cc(OCc4ccccc4C(F)(F)F)c(C(N)=O)s3)c2cc1OC [GW843682X] : Population Mitochondria Different-Phenotype (%) value = 88

// C[C@]12CC[C@@H]3c4ccc(O)cc4CC[C@H]3[C@@H]1CC[C@@H]2O [ESTRADIOL] : Population Mitochondria Different-Phenotype (%) value = 12

// C=CC(=O)Nc1cccc(Oc2nc(Nc3ccc(N4CCN(C)CC4)cc3OC)ncc2Cl)c1 : Population Mitochondria Different-Phenotype (%) value = 16
